Sourced from BindingDB's records for patent US9428501

- Tested Target: 5'-AMP-activated protein kinase catalytic subunit alpha-2 (Homo sapiens)
- Sequence (P54646 whole entry): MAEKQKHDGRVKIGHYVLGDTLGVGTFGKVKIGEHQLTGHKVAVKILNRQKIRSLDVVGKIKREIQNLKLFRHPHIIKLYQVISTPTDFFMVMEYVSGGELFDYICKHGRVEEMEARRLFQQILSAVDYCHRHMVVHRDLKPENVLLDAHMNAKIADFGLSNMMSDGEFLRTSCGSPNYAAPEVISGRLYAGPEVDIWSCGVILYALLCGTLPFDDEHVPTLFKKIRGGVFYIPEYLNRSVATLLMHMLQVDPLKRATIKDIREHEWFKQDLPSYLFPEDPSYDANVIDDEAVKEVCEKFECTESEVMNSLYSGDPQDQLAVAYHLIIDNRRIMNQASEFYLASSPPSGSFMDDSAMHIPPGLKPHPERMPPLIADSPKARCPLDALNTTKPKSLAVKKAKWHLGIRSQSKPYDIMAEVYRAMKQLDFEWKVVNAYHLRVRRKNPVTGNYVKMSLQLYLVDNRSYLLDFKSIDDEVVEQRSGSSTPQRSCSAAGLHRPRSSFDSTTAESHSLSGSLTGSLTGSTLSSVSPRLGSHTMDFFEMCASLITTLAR
- Protocol Description: Activation Assay
- Stated Conditions: 37 °C
Measured Attribute: pEC50
By convention, pEC50 is the negative base-10 log of a molar concentration.

Name the recorded pEC50 of CCOc1cnc(CN2CCC(c3ccc4cc(C(=O)N5CCN(Cc6ccc(C#N)cc6)CC5)n(C)c4c3)CC2)cn1 [US9428501, 69] , assay system 5'-AMP-activated protein kinase catalytic subunit alpha-2 (Homo sapiens). 8.74
